Assayed target: UniProt:Q6PJP8
Test name: real-time fluorescence-based nuclease assay, SNM1A
Assay type: biochemical
Parameters: DNA encoding for the MBL and β-CASP domains of SNM1A (aa 676–1040) was cloned into the baculovirus transfer vector pFB-LIC-Bse; inferred from vector pFB-LIC-Bse and the IMAC purification; made in house; host or cells: Sf9 insect cells (baculovirus)
Test context: real-time fluorescence-based nuclease assay; resynthesised compounds; read-out: SNM1A IC50
Assay readout: pIC50
Note on units: pIC50 is unitless, being -log10 of a concentration expressed in mol/L.

## Task Item C[C@H](Nc1nc(N2CCOCC2)nc2ccc(Cl)cc12)C(=O)NO has what recorded pIC50?
## Result 4.38

###

Assayed target: SNM1A (Homo sapiens, UniProt Q6PJP8)
Sequence (Q6PJP8 676-1040): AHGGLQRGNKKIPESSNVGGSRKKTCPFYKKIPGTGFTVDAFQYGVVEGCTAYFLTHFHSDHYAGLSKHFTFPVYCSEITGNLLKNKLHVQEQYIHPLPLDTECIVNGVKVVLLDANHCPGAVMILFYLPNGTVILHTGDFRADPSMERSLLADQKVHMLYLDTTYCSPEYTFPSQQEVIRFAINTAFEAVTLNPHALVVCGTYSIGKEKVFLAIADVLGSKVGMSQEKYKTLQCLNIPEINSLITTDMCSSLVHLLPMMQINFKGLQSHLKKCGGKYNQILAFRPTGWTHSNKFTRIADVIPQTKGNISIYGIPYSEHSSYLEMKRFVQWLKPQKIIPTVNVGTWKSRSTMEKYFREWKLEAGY
Test name: biochemical
Assay readout: IC50 (µM)
Kindly answer with a numeric value in µM, unit omitted.

## Task Item C=CCNc1nc(N[C@@H](CC(C)C)C(=O)O)c2cc(Cl)ccc2n1 has what recorded IC50?
## Result 17.4

###

Assayed target: UniProtKB Q96SD1
Sequence (Q96SD1 1-362): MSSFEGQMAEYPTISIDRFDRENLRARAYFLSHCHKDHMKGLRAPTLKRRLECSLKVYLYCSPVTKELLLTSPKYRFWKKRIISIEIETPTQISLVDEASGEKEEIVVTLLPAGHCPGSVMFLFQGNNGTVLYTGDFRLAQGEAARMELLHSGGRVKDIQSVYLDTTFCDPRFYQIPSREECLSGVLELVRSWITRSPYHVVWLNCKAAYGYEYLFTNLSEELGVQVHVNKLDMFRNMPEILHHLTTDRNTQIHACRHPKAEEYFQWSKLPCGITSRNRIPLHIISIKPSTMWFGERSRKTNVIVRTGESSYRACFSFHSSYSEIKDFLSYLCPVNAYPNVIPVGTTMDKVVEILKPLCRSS
Assay readout: pIC50
Note on units: pIC50 is unitless, being -log10 of a concentration expressed in mol/L.

## Task Item C[C@H](Nc1nc(NCc2ccccc2)nc2ccc(Cl)cc12)C(=O)NO has what recorded pIC50?
## Result 5.96

###

Assayed target: SNM1B (Homo sapiens, UniProt Q9H816)
Construct: for the MBL and β-CASP domains of SNM1B (aa 1–335) into baculoviral expression vectors pFB-CT10HF-LIC; made in house; host or cells: Sf9 insect cells (baculovirus)
Sequence (Q9H816 1-335): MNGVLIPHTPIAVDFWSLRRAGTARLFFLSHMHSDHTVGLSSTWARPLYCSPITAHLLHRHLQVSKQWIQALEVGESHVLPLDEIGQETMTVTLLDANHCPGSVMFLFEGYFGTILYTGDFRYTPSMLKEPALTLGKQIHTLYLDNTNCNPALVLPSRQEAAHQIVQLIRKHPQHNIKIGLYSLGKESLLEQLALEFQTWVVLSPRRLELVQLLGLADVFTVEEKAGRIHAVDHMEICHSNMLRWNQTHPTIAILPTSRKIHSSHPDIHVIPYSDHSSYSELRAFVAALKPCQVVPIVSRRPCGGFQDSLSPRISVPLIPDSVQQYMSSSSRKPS
Test name: gel-based nuclease assay, SNM1B
Format: biochemical
Test context: 1 nM SNM1B
Assay readout: inhibition of SNM1B in gel-based assay

C=CCNc1nc(N[C@H](C)C(=O)NO)c2cc(Cl)ccc2n1 ... good inhibition
C=CCNc1nc(N[C@@H](C)C(=O)NO)c2cc(Cl)ccc2n1 ... good inhibition
C=CCNC(=O)c1nc(N[C@@H](C)C(=O)NO)c2ccccc2n1 ... good inhibition

###

Assayed target: SNM1A (Homo sapiens, UniProt Q6PJP8)
Sequence (Q6PJP8 676-1040): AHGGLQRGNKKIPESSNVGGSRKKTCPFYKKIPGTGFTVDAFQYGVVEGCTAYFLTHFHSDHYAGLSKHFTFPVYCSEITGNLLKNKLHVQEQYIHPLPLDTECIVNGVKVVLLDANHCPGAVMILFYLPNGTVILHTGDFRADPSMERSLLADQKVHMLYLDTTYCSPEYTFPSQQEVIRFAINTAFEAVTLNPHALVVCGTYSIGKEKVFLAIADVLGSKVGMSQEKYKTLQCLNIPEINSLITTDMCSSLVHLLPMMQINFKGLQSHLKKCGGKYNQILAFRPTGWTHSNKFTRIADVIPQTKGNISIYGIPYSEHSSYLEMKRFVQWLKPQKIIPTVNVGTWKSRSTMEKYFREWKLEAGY
Test name: gel-based nuclease assay, SNM1A
Assay type: biochemical
Parameters: DNA encoding for the MBL and β-CASP domains of SNM1A (aa 676–1040) was cloned into the baculovirus transfer vector pFB-LIC-Bse; inferred from vector pFB-LIC-Bse and the IMAC purification; made in house; host or cells: Sf9 insect cells (baculovirus)
Test context: 0.5 nM SNM1A
Source text: To validate the inhibition of SNM1A, SNM1B, and SNM1C observed in the fluorescence-based screening assays, we then performed gel-based assays using 3′ terminally-labelled oligonucleotide substrates that enable both quantitative and qualitative (visual) assessment of the pattern of inhibition, for a subset of compounds. […]
Assay readout: inhibition of SNM1A in gel-based assay

C=CCNc1nc(N[C@H](C)C(=O)NO)c2cc(Cl)ccc2n1 [compound 12] ... good inhibition
C=CCNC(=O)c1nc(N[C@@H](C)C(=O)NO)c2ccccc2n1 [compound 20] ... good inhibition
C=CCNc1nc(N[C@@H](C)C(=O)NO)c2cc(Cl)ccc2n1 [compound 13] ... good inhibition

###

Assayed target: SNM1A (Homo sapiens)
Test name: real-time fluorescence-based nuclease assay, SNM1A
Type: biochemical
Design: DNA encoding for the MBL and β-CASP domains of SNM1A (aa 676–1040) was cloned into the baculovirus transfer vector pFB-LIC-Bse; inferred from vector pFB-LIC-Bse and the IMAC purification; made in house; host or cells: Sf9 insect cells (baculovirus)
Test context: real-time fluorescence-based nuclease assay; resynthesised compounds; read-out: SNM1A IC50
Assay readout: IC50 (µM)
Kindly answer with a numeric value in µM, unit omitted.

# example entries with known answers
COc1ccc2nc(N(C)C)nc(N[C@@H](C)C(=O)NO)c2c1 [compound 24] ... 74
C[C@H](Nc1nc(NCc2ccccc2)nc2ccc(Cl)cc12)C(=O)NO [compound 16] ... 34

Proceeding to the next molecule to report its IC50.
## Task Lab request: please report IC50 under test system SNM1A (Homo sapiens) for C[C@H](Nc1nc(N(C)C)nc2ccc(Cl)cc12)C(=O)NO [compound 22]
## Result 11

###

A collection of molecules and their measured IC50
Assayed target: SNM1A (Homo sapiens, UniProt Q6PJP8)
Test name: real-time fluorescence-based nuclease assay, SNM1A
Format: biochemical
Parameters: DNA encoding for the MBL and β-CASP domains of SNM1A (aa 676–1040) was cloned into the baculovirus transfer vector pFB-LIC-Bse; inferred from vector pFB-LIC-Bse and the IMAC purification; made in house; host or cells: Sf9 insect cells (baculovirus)
Test context: SNM1A IC50, real-time fluorescence-based nuclease assay; resynthesised compounds

C=CCNc1nc(N[C@@H](CC(C)C)C(=O)O)c2cc(Cl)ccc2n1 ... 129 µM

Proceeding to the next molecule to report its IC50.
## Task Item C[C@H](Nc1nc(NCc2ccco2)nc2ccc(Cl)cc12)C(=O)NO has what recorded IC50?
## Result 44 µM

###

Assayed target: UniProt:Q6PJP8
Test name: real-time fluorescence-based nuclease assay, SNM1A
Type: biochemical
Design: DNA encoding for the MBL and β-CASP domains of SNM1A (aa 676–1040) was cloned into the baculovirus transfer vector pFB-LIC-Bse; inferred from vector pFB-LIC-Bse and the IMAC purification; made in house; host or cells: Sf9 insect cells (baculovirus)
Test context: real-time fluorescence-based nuclease assay; resynthesised compounds; read-out: SNM1A IC50
A collection of molecules and their measured log10 of IC50
Scale: log10; quantity: IC50; unit before log: µM

C=CCNc1nc(N[C@@H](CC(C)C)C(=O)O)c2cc(Cl)ccc2n1 ... 2.04
C=CCNC(=O)c1nc(N[C@@H](C)C(=O)NO)c2ccccc2n1 ... 1.92
C=CCNc1nc(N[C@@H](C)C(=O)NO)c2cc(Cl)ccc2n1 ... -0.10
COc1cc2c3c(cccc3c1)C(=O)N(O)C2=O ... 0.46

## Task Item C=CCNc1nc(NC(CC(C)C)C(=O)NO)c2cc(Cl)ccc2n1 (centres unmarked) has what recorded log10 of IC50?
## Result 1.52

###

Assayed target: SNM1B (Homo sapiens)
Sequence (Q9H816 1-335): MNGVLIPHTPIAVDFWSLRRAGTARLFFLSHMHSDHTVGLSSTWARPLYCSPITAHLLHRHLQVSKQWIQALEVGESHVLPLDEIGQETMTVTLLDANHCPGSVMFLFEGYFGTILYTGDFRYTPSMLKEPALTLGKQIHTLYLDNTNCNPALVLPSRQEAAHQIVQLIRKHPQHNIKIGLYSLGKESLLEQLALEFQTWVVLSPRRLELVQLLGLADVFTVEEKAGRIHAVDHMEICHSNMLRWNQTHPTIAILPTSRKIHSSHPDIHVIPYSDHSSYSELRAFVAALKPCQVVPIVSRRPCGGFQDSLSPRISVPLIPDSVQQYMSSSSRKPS
A collection of compounds and their measured IC50
Kindly answer with a numeric value in µM, unit omitted.

COc1ccc2c3c(cccc13)C(=O)N(O)C2=O ... 1.9

Proceeding to the next compound to report its IC50.
## Task Item C[C@H](Nc1nc(NCc2ccco2)nc2ccc(Cl)cc12)C(=O)NO has what recorded IC50?
## Result 2.5

The measured values listed here are drawn from paper PMC11134331.
